# Target desc: Nuclear receptor subfamily 2 group E member 1 (Homo sapiens)
# Sequence (Q9Y466 whole entry, the tested form may be a part): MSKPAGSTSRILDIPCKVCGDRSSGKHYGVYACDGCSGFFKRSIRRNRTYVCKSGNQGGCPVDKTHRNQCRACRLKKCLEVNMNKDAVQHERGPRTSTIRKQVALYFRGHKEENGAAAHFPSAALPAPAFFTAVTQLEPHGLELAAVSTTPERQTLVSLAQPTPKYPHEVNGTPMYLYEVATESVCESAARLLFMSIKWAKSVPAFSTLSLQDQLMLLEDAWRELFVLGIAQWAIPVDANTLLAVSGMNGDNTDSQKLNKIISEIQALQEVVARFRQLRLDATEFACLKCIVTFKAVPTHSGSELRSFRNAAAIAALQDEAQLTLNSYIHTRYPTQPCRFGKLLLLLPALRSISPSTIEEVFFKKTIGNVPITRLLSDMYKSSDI
# Assay explanation: Agonist activity at human full length Gal4-fused TLX transfected in human HEK293T cells coexpressing pFR-TAE-Luc assessed as repressor activity of receptor by measuring decrease in reporter activity by dual-glo luciferase assay
# Type: cell-based
Readout name: EC50
Phrase the answer as number then unit, nothing more needed.

Incoming: Any idea what EC50 was measured for `CCCCOc1cc(C(=O)Nc2cc(-n3cnc(C)c3)cc(C(F)(F)F)c2)c2ccccc2n1` ?
Outgoing: 0.7 µM

====

EC50: recorded values
# Target desc: Nuclear receptor subfamily 2 group E member 1 (Homo sapiens)
# Assay explanation: Agonist activity at human Gal4-fused TLX LBD expressed in human HEK293T cells coexpressing Gal4-VP16 assessed as repressor activity of receptor by measuring decrease in reporter activity measured after 14 hrs by Dual-Glo Luciferase assay
# Type: cell-based
I only need the number, in µM, no unit after it.

[
  {
    "Compound smiles": "Cc1cn(-c2cc(NC(=O)CCCc3ccc(-c4ccccc4)cc3)cc(C(F)(F)F)c2)cn1",
    "Target desc": "Nuclear receptor subfamily 2 group E member 1 (Homo sapiens)",
    "EC50, µM": 1.2
  },
  {
    "Compound smiles": "Cc1cn(-c2cc(N)cc(C(F)(F)F)c2)cn1",
    "Target desc": "Nuclear receptor subfamily 2 group E member 1 (Homo sapiens)",
    "EC50, µM": 20
  },
  {
    "Compound smiles": "CCCCOc1cc(C(=O)Nc2cc(-n3cnc(C)c3)cc(C(F)(F)F)c2)c2ccccc2n1",
    "Target desc": "Nuclear receptor subfamily 2 group E member 1 (Homo sapiens)",
    "EC50, µM": 0.25
  },
  {
    "Compound smiles": "Cc1cn(-c2cc(NC(=O)N3CCN(c4ccc(O)cc4)CC3)cc(C(F)(F)F)c2)cn1",
    "Target desc": "Nuclear receptor subfamily 2 group E member 1 (Homo sapiens)",
    "EC50, µM": 5
  },
  {
    "Compound smiles": "COc1cc(N)c(Cl)cc1C(=O)Nc1cc(-n2cnc(C)c2)cc(C(F)(F)F)c1",
    "Target desc": "Nuclear receptor subfamily 2 group E member 1 (Homo sapiens)",
    "EC50, µM": 3
  }
]

Next, consider the following compound.
Incoming: Any idea what EC50 was measured for `CC(=O)Nc1cc(-n2cnc(C)c2)cc(C(F)(F)F)c1` ?
Outgoing: 11
